From: patent US20190177415A1

# target_system: T1, full length cynomolgus monkey C10orf54 (construct CC4) (cynomolgus monkey, UniProt Q9H7M9 33-311 (human entry))
# T1 construct: also called C10orf54 Construct 4
# T1 chain: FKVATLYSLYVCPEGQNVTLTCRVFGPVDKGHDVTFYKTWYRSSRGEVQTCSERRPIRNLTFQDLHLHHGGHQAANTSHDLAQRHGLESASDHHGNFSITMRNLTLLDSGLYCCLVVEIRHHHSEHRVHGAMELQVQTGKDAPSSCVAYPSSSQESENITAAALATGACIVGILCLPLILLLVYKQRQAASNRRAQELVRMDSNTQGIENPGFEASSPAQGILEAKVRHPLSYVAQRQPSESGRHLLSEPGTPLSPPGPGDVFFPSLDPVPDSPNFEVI
# experiment: flow cytometry, transfected 293t cells, 2 ug/ml; stain = MFI >=20-fold over isotype control
# Protocol: To investigate epitope diversity of the anti-human C10orf54 antibodies, 293t cells were transfected with 1 of 10 different C10orf54 expression constructs that co-express a fluorescent marker. […] Upon acquisition of 10,000 live events on a flow cytometer, live cells marked with the fluorescent marker were analyzed for the degree of staining by the anti-human C10orf54 antibody. […]
readout_label: binding result

>>> meas_value("murine monoclonal antibody 353A (antibody, V domains shown, Mouse hybridoma antibody) VH: EVKLLESGGGLVQPGGSLKLSCAASGFDFSRYWMNWVRQAPGKGLEWIGEINPDSSTINYTPSLKDKFIISRDNAKNTLYLQMSKVRYEDTALYYCARPGEIYYYGSYWFAYWGQGTLVTVSA VL: DIVLTQSPASLAVSLGQRATISCRASESVEYYGTSLMQWFQQKPGQPPKLLIYAASNVESRVPARFSGSGSGTDFSLNIHPVEEDDIAMYFCQQSRKDPWTFGGGTKLEIK")
"binds"
>>> meas_value("murine monoclonal antibody 259A (antibody, V domains shown, Mouse hybridoma antibody) VH: EVQLQQSGPELVKPGASVKMSCKASGYTFTSYFMHWVKQKPGQGLEWIGYIYPYNDGTKYNEKFKGKATLTSDKSSSTAYMDLSSLTSEDSAVYYCARFDYDTLRYWGQGTTLTVSS VL: DVVLTQTPLSLPVNIGDQASISCKSTKSLLNSDGFTYLDWYLQKPGQSPQLLIYLISNRFSGVPDRFSGSGSGTDFTLKISRVEAEDLGVYYCFQSNYFPWTFGGGTKLEIK")
"binds"
